Test system: Saccharomyces cerevisiae;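 note: PSI is a weighted mean of sequencing reads over stability bins, variants kept only with over 10 reads, mCherry proximal and sfGFP distal, peptide attached via GGGS linker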
measurement_description: protein stability index of tFT-peptide fusion (C-terminal peptide) (PSI (0-1 scale)); higher = more stable (slower turnover)
details: genetic background: wild type; temperature: 30 C
Decision: protein stability index >= 0.6 yields satisfied, all other cases yield not satisfied.

Worked examples, 5 sequences total:
CVIVCETYFQCA
not satisfied
LTRLAYGLATAL
satisfied
VLGSSSKLGSLS
satisfied
PPSPEPGSPHRF
satisfied
SVLALKGFCWLG
not satisfied

Please check the record VPPPLRLWPLPV and state if its protein stability index is at or above 0.6.
satisfied

Please indicate if the recorded protein stability index for VGGLGGVGGGMG meets or exceeds 0.6.
satisfied
